Target: Cx43 HCs (Homo sapiens, UniProt P17302)
Construct: expressed in transfected cells
Sequence (P17302 whole entry): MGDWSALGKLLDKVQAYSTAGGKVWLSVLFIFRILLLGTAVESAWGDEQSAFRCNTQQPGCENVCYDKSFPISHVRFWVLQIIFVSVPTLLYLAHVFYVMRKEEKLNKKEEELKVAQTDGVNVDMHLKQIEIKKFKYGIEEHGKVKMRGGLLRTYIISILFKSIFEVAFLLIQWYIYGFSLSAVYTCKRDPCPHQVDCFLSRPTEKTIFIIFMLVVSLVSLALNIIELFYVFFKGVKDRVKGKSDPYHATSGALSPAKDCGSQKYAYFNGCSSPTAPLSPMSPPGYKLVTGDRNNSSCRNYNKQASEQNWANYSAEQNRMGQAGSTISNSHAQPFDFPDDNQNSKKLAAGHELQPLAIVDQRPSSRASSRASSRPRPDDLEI
Assay: Cx43-dependent growth complementation assay in E. coli LB2003
Format: cell-based
Conditions: the 15th table, second Cx43 column; sub-head and unit not given
Entries and their Cx43 Imax
No unit in the answer, please; the number alone is enough.

Recorded results for 3 compounds are shown here.
compound: CCCCCCCCCCCC(=O)NCC1O[C@H](OC2C(N)CC(N)C(OC3O[C@H](CO)C(O)C(N)[C@H]3O)[C@H]2O)C(O)C(O)[C@@H]1O (stereo partly shown)
system: Cx43 HCs (Homo sapiens, UniProt P17302)
recordedValue: 82.2
//
compound: Cc1ccc(OC[C@H]2OC(OC3C(N)CC(N)C(O[C@H]4OC(CN)[C@@H](O)C(O)C4O)[C@@H]3O)[C@H](O)C(N)C2O)cc1 (stereo partly shown)
system: Cx43 HCs (Homo sapiens, UniProt P17302)
recordedValue: 91.1
//
compound: NCC1O[C@H](OC2C(N)CC(N)C(OC3O[C@H](COc4ccc(Cl)cc4)C(O)C(N)[C@H]3O)[C@H]2O)C(O)C(O)[C@@H]1O (stereo partly shown)
system: Cx43 HCs (Homo sapiens, UniProt P17302)
recordedValue: 80.6

Lookup: // Input: NC1CC(N)C(O[C@H]2OC(CNC(=O)CCCc3ccc4ccc5cccc6ccc3c4c56)[C@@H](O)C(O)C2O)[C@H](O)C1OC1O[C@H](CO)C(O)C(N)[C@H]1O (stereo partly shown) . Output its Cx43 Imax only.
Found: 80.2

* * *

Target: human Cx26 HCs (Homo sapiens)
Construct: expressed in transfected cells; host or cells: E. coli LB2003 (carrying pREP4), transformed with pQE-Cx26, IPTG-induced
Assay: Cx26-dependent growth complementation assay in E. coli LB2003
Assay type: cell-based
Settings: 15 μM; Table 6
quantityKind: inhibition at 15 µM (%)
Number only, in %; omit the unit.

Recorded results for 5 molecules are shown here.
molecule: Cc1ccc(OC[C@H]2OC(OC3C(N)CC(N)C(O[C@H]4OC(CN)[C@@H](O)C(O)C4O)[C@@H]3O)[C@H](O)C(N)C2O)cc1 (some centres unmarked)
quantityKind: inhibition at 15 µM
recordedValue: 19.3

molecule: CCCCCCCC(=O)NCC1O[C@H](OC2C(N)CC(N)C(OC3O[C@H](CO)C(O)C(N)[C@H]3O)[C@H]2O)C(O)C(O)[C@@H]1O (some centres unmarked)
quantityKind: inhibition at 15 µM
recordedValue: 14

molecule: NCC1O[C@H](OC2C(N)CC(N)C(OC3O[C@H](COc4ccccc4)C(O)C(N)[C@H]3O)[C@H]2O)C(O)C(O)[C@@H]1O (some centres unmarked)
quantityKind: inhibition at 15 µM
recordedValue: 14.6

molecule: NC1CC(N)C(O[C@H]2OC(CNC(=O)c3cc(-c4ccccc4)nc4ccccc34)[C@@H](O)C(O)C2O)[C@H](O)C1OC1O[C@H](CO)C(O)C(N)[C@H]1O (some centres unmarked)
quantityKind: inhibition at 15 µM
recordedValue: 8

molecule: CCCCCCCCCCCC(=O)NCC1O[C@H](OC2C(N)CC(N)C(OC3O[C@H](CO)C(O)C(N)[C@H]3O)[C@H]2O)C(O)C(O)[C@@H]1O (some centres unmarked)
quantityKind: inhibition at 15 µM
recordedValue: 16.4

Lookup: // Input: NCC1O[C@H](OC2C(N)CC(N)C(OC3O[C@H](COc4ccc(Cl)cc4)C(O)C(N)[C@H]3O)[C@H]2O)C(O)C(O)[C@@H]1O (some centres unmarked) . Output its inhibition at 15 µM only.
Found: 44.4

Lookup: // Input: COc1ccc(OC[C@H]2OC(OC3C(N)CC(N)C(O[C@H]4OC(CN)[C@@H](O)C(O)C4O)[C@@H]3O)[C@H](O)C(N)C2O)cc1 (some centres unmarked) . Output its inhibition at 15 µM only.
Found: 15.9

Lookup: // Input: NCC1O[C@H](OC2C(N)CC(N)C(OC3O[C@H](COc4ccc([N+](=O)[O-])cc4)C(O)C(N)[C@H]3O)[C@H]2O)C(O)C(O)[C@@H]1O (some centres unmarked) . Output its inhibition at 15 µM only.
Found: 35.9

Lookup: // Input: CCCCCCCCCC(=O)NCC1O[C@H](OC2C(N)CC(N)C(OC3O[C@H](CO)C(O)C(N)[C@H]3O)[C@H]2O)C(O)C(O)[C@@H]1O (some centres unmarked) . Output its inhibition at 15 µM only.
Found: 16.1

Lookup: // Input: NC1CC(N)C(O[C@H]2OC(CNC(=O)c3ccccc3-c3c4ccc(=O)cc-4oc4ccc(O)cc34)[C@@H](O)C(O)C2O)[C@H](O)C1OC1O[C@H](CO)C(O)C(N)[C@H]1O (some centres unmarked) . Output its inhibition at 15 µM only.
Found: 22.3

Lookup: // Input: NC1CC(N)C(O[C@H]2OC(CNC(=O)CCCc3ccc4ccc5cccc6ccc3c4c56)[C@@H](O)C(O)C2O)[C@H](O)C1OC1O[C@H](CO)C(O)C(N)[C@H]1O (some centres unmarked) . Output its inhibition at 15 µM only.
Found: 36.9

Data provenance is patent US12286452B2.
